Test system: human maximum recommended daily dose, FDA database
Experiment: DSSTox (FDAMDD) FDA Maximum (Recommended) Daily Dose Database
Details: TherapeuticCategory: carbonic anhydrase inhibitor; diuretic; hits give low values
Readout: maximum recommended daily dose (mmol/kg-bw/day)

# Input smiles, Observed value
rows = [
    ("CCOc1ccc2nc(S(N)(=O)=O)sc2c1", 0.0322),
    ("CC(=O)Nc1nnc(S(N)(=O)=O)s1", 0.0751),
]

* * *

System: human maximum recommended daily dose, FDA database
Experiment: DSSTox (FDAMDD) FDA Maximum (Recommended) Daily Dose Database
Conditions: TherapeuticCategory: analgesic; anesthetic; hits give low values
Readout: maximum recommended daily dose (mmol/kg-bw/day)

# Input smiles, Observed value
measured = [
    ("c1ccc(C2(N3CCCCC3)CCCCC2)cc1", 0.000822),
]

* * *

Test system: human maximum recommended daily dose, FDA database
Assay: DSSTox (FDAMDD) FDA Maximum (Recommended) Daily Dose Database
Details: TherapeuticCategory: antiamebic; hits give low values
maximum recommended daily dose (mmol/kg-bw/day) values, listed per item
Readout: maximum recommended daily dose (mmol/kg-bw/day)

# Compound, Target or test system, Observed value
rows = [
    ("Oc1c(I)cc(I)c2cccnc12", "human maximum recommended daily dose, FDA database", 0.0756),
    ("CN(C)CCOC(C)(c1ccccc1)c1ccc(Cl)cc1 (centres undefined)", "human maximum recommended daily dose, FDA database", 0.123),
    ("CN(C(=O)C(Cl)Cl)c1ccc(O)cc1", "human maximum recommended daily dose, FDA database", 0.107),
    ("CC[C@H]1CN2CCc3cc(OC)c(OC)cc3[C@@H]2C[C@@H]1C[C@H]1NCCc2cc(OC)c(OC)cc21", "human maximum recommended daily dose, FDA database", 0.00208),
]

* * *

Tested on: human maximum recommended daily dose, FDA database
Test: DSSTox (FDAMDD) FDA Maximum (Recommended) Daily Dose Database
Conditions: TherapeuticCategory: antidepressant; hits give low values
Recorded maximum recommended daily dose (mmol/kg-bw/day) by entry
Readout: maximum recommended daily dose (mmol/kg-bw/day)

# Molecule, Observed value
data = [
    ("Cc1cc(C(=O)NNCc2ccccc2)no1", 0.00432),
    ("Fc1ccc([C@@H]2CCNC[C@H]2COc2ccc3c(c2)OCO3)cc1", 0.00253),
    ("Clc1ccc2c(c1)C(N1CCNCC1)=Nc1ccccc1O2", 0.0319),
    ("CN(C)CCC=C1c2ccccc2CCc2ccccc21", 0.018),
    ("CN[C@H]1CC[C@@H](c2ccc(Cl)c(Cl)c2)c2ccccc21", 0.0109),
    ("CN(C)CCN1C(=O)c2ccccc2N(C)c2ccccc21", 0.0406),
    ("CN1Cc2c(N)cccc2C(c2ccccc2)C1 (configuration not stated)", 0.014),
    ("CC(CN(C)C)CN1c2ccccc2CCc2ccccc21 (configuration not stated)", 0.0113),
    ("CN(C)CC/C=C1/c2ccccc2COc2ccccc21", 0.0179),
    ("CNCCCC1c2ccccc2C=Cc2ccccc21", 0.0038),
    ("CCc1nn(CCCN2CCN(c3cccc(Cl)c3)CC2)c(=O)n1CC", 0.00662),
    ("CNCCC=C1c2ccccc2CCc2ccccc21", 0.00634),
]

* * *

// maximum recommended daily dose (mmol/kg-bw/day) lookup, one value per entry
System: human maximum recommended daily dose, FDA database
Test: DSSTox (FDAMDD) FDA Maximum (Recommended) Daily Dose Database
Settings: TherapeuticCategory: antipsoriatic; hits give low values
Readout: maximum recommended daily dose (mmol/kg-bw/day)

# Input smiles, Observed value
measured = [
    ("COc1cc(C)c(/C=C/C(C)=C/C=C/C(C)=C/C(=O)O)c(C)c1C", 0.00383),
    ("CCOC(=O)/C=C(C)/C=C/C=C(C)/C=C/c1c(C)cc(OC)c(C)c1C", 0.00423),
]

* * *

Tested on: human maximum recommended daily dose, FDA database
Test: DSSTox (FDAMDD) FDA Maximum (Recommended) Daily Dose Database
Settings: TherapeuticCategory: antibacterial; hits give low values
Readout: maximum recommended daily dose (mmol/kg-bw/day)

# Compound, Observed value
records = [
    ("CC1(C)S[C@@H]2[C@H](NC(=O)C3(N)CCCCC3)C(=O)N2[C@H]1C(=O)O", 0.0975),
    ("C[C@@H]1C/C=C/C=C/C=C/C=C/[C@H](O[C@@H]2O[C@H](C)[C@@H](O)[C@H](N)[C@@H]2O)C[C@@H]2O[C@](O)(C[C@@H](O)C[C@H]3O[C@@H]3/C=C/C(=O)O1)C[C@H](O)[C@H]2C(=O)O", 0.000413),
    ("CCn1nc(C(=O)O)c(=O)c2cc3c(cc21)OCO3", 0.0637),
    ("CC(=O)Nc1ccc(/C=N/NC(N)=S)cc1", 0.0106),
    ("CC[C@H]1OC(=O)[C@H](C)[C@@H](O[C@H]2C[C@@](C)(OC)[C@@H](O)[C@H](C)O2)C(C)[C@@H](O[C@@H]2O[C@H](C)C[C@H](N(C)C)[C@H]2O)[C@](C)(OC)C[C@@H](C)C(=O)[C@H](C)[C@@H](O)[C@]1(C)O (stereo partly drawn)", 0.0111),
    ("CN[C@@H]1[C@@H](O)[C@@H](O[C@@H]2[C@@H](O)[C@H](O[C@H]3O[C@H](CN)CC[C@H]3N)[C@@H](N)C[C@H]2N)OC[C@]1(C)O", 0.00667),
    ("CC1(C)S[C@@H]2[C@H](NC(=O)[C@H](C(=O)O)c3ccsc3)C(=O)N2[C@H]1C(=O)O", 0.78),
    ("CC(=O)OCC1=C(C(=O)O)N2C(=O)[C@@H](NC(=O)CSc3ccncc3)[C@H]2SC1", 0.236),
    ("O=C1CN(/N=C/c2ccc([N+](=O)[O-])o2)C(=O)N1", 0.028),
    ("CO[C@H]1C[C@H](O[C@H]2[C@H](C)[C@@H](O[C@@H]3O[C@H](C)C[C@H](N(C)C)[C@H]3O)[C@@H](C)C[C@]3(CO3)C(=O)[C@H](C)[C@@H](O)[C@@H](C)[C@@H](C)OC(=O)[C@@H]2C)O[C@@H](C)[C@@H]1O", 0.0484),
    ("CC1(C)S[C@@H]2[C@H](NC(=O)[C@H](N)c3ccc(O)cc3)C(=O)N2[C@H]1C(=O)O", 0.0596),
    ("COc1ncnc(NS(=O)(=O)c2ccc(N)cc2)c1OC", 0.0806),
    ("CO[C@@H]1[C@@H](O[C@@H]2O[C@H](C)[C@@H](O[C@H]3C[C@@](C)(O)[C@@H](O)[C@H](C)O3)[C@H](N(C)C)[C@H]2O)[C@@H](CC=O)C[C@@H](C)[C@@H](O[C@@H]2CC[C@H](N(C)C)[C@@H](C)O2)/C=C/C=C/C[C@@H](C)OC(=O)C[C@H]1O", 0.0791),
]

* * *

Test system: human maximum recommended daily dose, FDA database
Test: DSSTox (FDAMDD) FDA Maximum (Recommended) Daily Dose Database
Conditions: TherapeuticCategory: anticonvulsant; hypnotic; hits give low values
Readout: maximum recommended daily dose (mmol/kg-bw/day)

# Input smiles, Observed value
rows = [
    ("O=C1CN=C(c2ccccc2)c2cc([N+](=O)[O-])ccc2N1", 0.00118),
]

* * *

Tested on: human maximum recommended daily dose, FDA database
Experiment: DSSTox (FDAMDD) FDA Maximum (Recommended) Daily Dose Database
Conditions: TherapeuticCategory: anorexic; CNS stimulant; hits give low values
Readout: maximum recommended daily dose (mmol/kg-bw/day)

# Compound, Target or test system, Observed value
data = [
    ("CC1NCCOC1c1ccccc1 (stereo unspecified)", "human maximum recommended daily dose, FDA database", 0.00705),
]

* * *

Tested on: human maximum recommended daily dose, FDA database
Experiment: DSSTox (FDAMDD) FDA Maximum (Recommended) Daily Dose Database
Conditions: TherapeuticCategory: none; hits give low values
Consider the following compounds and their measured maximum recommended daily dose (mmol/kg-bw/day) readings.
Readout: maximum recommended daily dose (mmol/kg-bw/day)

# Input smiles, Observed value
records = [
    ("C[C@H]1CC[C@@H]2N(C1)C[C@@H]1[C@H]([C@@H](O)[C@H](O)[C@]3(O)[C@H]1C[C@@]14O[C@@]5(O)[C@@H]([C@@H](O)[C@@H](O)[C@@H]31)[C@]4(C)CC[C@@H]5O)[C@]2(C)O", "4.76e-05"),
    ("Cc1c(C(=O)O)c(O)cc2c1C(=O)c1c(O)c([C@@H]3O[C@H](CO)[C@@H](O)[C@H](O)[C@H]3O)c(O)c(O)c1C2=O", 0.0169),
    ("O=C(O)CCCC[C@@H]1SC[C@@H]2NC(=O)N[C@@H]21", "1.36e-05"),
    ("OCc1ccccc1", 0.0462),
    ("OC[C@H]1O[C@H](O[C@H]2[C@H](O)[C@@H](O)[C@H](O)O[C@@H]2CO)[C@H](O)[C@@H](O)[C@@H]1O", 0.292),
]
